B1: TPR t1 (parent)
chain: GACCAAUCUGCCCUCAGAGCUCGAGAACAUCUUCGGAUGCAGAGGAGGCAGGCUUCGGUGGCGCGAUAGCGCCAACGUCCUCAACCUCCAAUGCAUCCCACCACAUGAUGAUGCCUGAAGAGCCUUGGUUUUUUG

Variants of: B1
Assay: polymerase ribozyme fitness, log enrichment relative to wild type (log ratio); higher = more active; in vitro selection for triplet polymerase activity
MEASURE: polymerase ribozyme fitness (log ratio)
No unit in the answer, please; the number alone is enough.

Ask: For the variant GACCAAUCUGCCCUCAGAGCUCGAGAACAUCUUCGGAUGCAGAGGAGGCAGGCUUCGGUGGCGCGAUAGCGCCAACGUCCUCAACCUCCAAUGCAUCCCACCACAUGAUUAUGCCUGAAGAGCCUUGGUUUUUUC [G110U G135C] , give its measured polymerase ribozyme fitness (log ratio) value.
Reply: -1.54

Ask: For the variant GACCAAUCUGCCCUCAGAGCUAGAGAACAUCUUCGGAUGCAGAGGAGGCAGGCUUCGGUGACGCGAUAGCGCCAACGUCCUCGACCUCCAAUGCAACCCACCACAUGAUGAUGACUGAAGAGCCUUGGUUUUUUG [C22A G61A A83G U96A C114A] , give its measured polymerase ribozyme fitness (log ratio) value.
Reply: -5.1

Ask: For the variant GACCAAUCGGCCCUCAGAGCUCGAGAACAUCUUCGGAUGCAGAGGAGGCAGGCUUCGGUGGCGCGAUAGCGCCAACGUCCUCAACCUCCAAUGCAUCCCACCACAUGAUGAUGCCUGAAAAGCCUUGGUAUUUUG [U9G G120A U130A] , give its measured polymerase ribozyme fitness (log ratio) value.
Reply: 1.11

Ask: For the variant GACCAAUCUGCCCUCAGAGCUCGAGAACAUCUUCGGAUGCAGAGGAGGCAGGCUUCGGUGGUGCGAUAGCGCCAACGUCCUCAACCUCCAAUGCUUCCCACCACAUGAUGAUGUCUGAAGAGCCUUGGUUUUUUG [C62U A95U C114U] , give its measured polymerase ribozyme fitness (log ratio) value.
Reply: -3.03

Ask: For the variant GACCAAUCUGCCCUCAGAUCUCGAGAACAUCUUCGGAUGCAGAGGAGGCUGGCUUCGGUGGCGCGAUAGCGCCAACGUCCUCAACCUCCAAUGCAUCCCACCACAUGAUGAUGCCUGAAGAGCGUUGGUUUUUUG [G19U A50U C124G] , give its measured polymerase ribozyme fitness (log ratio) value.
Reply: -2.97

Ask: For the variant GACAAAACUGCCCUCAGAGCUCGAGAACAUCUUCGGAUGCAGAGGAGGCAGGCUUCGGUGACGCGAUAGCGCCAACGUCCUCAACCUCCAAUGCAUCCCACCACAUGAUGAUGCCUGAAGAGCCUUGGUUUUUUG [C4A U7A G61A] , give its measured polymerase ribozyme fitness (log ratio) value.
Reply: -0.369

Ask: For the variant GACCAAUCUGCCCUCAGAGCUCGAGAACAUCUUGGGAUACAGAGGAGGCAGGCUUAGGUGGCGCGAUAUCGCCAACGUACUCAACCUCCAAUGCAUCCCACCUGAUGAUAAUGCGUGAAGAGCCUUGGUUUUUUG [C34G G39A C56A G69U C79A A103U C104G G110A C115G] , give its measured polymerase ribozyme fitness (log ratio) value.
Reply: -7.05

Ask: For the variant GACCAAUCUGCCCUCAGAGCUCGAGAACAUCUUCGGAUGCAGAGGAGGGAGGCUUCGGUGGCGCGAUAGCGCCAACGUUCUCAACCUCCAAUGCAGCCCACCACAUGAUGAUGCCUGAAGAGCCUUGGUUUUUUG [C49G C79U U96G] , give its measured polymerase ribozyme fitness (log ratio) value.
Reply: -0.996

Ask: For the variant GAACAAUCGGCCCUCACAGCUCGAGAACAUCUUCGGAUGCAGAGGAGGCAGGCGUCGGUGGCGCGAUAUCGCCAACGUCCUCAACCUCCAAUGCAUCCCACCACCUGAUGAUGCCUAAAGAGCCUUGGUUUUUUG [C3A U9G G17C U54G G69U A105C G117A] , give its measured polymerase ribozyme fitness (log ratio) value.
Reply: -5.55

Ask: For the variant GACCAAUCUGCCCUCAGAGCUCGAGAACAUCUUCGGAUGCAGUGGAGACAGGCUUCGGUGGCGCGAUAGCUCCAACGUCCUCAACCUCCAAUGCAUCCCACCACAUGAUGAAGCCUGAAGAGCCUUGGUUUUUUG [A43U G48A G71U U112A] , give its measured polymerase ribozyme fitness (log ratio) value.
Reply: -1.51

Ask: For the variant GACCAAUCUGCCUUCAGUGCUCGAGAACAUCUUCGGAUGCAGAGGAGGCAGGCUUCGGUGGCGCGAUAGCGCCAACGUCCUCAACCUCCAAUGCAUCCCACCACAUGAUGAUGCCUGAAGAGCCUUGGUUUUUUG [C13U A18U] , give its measured polymerase ribozyme fitness (log ratio) value.
Reply: -0.945

# credit: the RNAGym collection of RNA variant scans (doi:10.1073/pnas.2313332121)
